Listed next: entries and their corresponding pIC50.
# target.desc: SERT (Rattus norvegicus, UniProt P31652)
# Sequence (P31652 whole entry): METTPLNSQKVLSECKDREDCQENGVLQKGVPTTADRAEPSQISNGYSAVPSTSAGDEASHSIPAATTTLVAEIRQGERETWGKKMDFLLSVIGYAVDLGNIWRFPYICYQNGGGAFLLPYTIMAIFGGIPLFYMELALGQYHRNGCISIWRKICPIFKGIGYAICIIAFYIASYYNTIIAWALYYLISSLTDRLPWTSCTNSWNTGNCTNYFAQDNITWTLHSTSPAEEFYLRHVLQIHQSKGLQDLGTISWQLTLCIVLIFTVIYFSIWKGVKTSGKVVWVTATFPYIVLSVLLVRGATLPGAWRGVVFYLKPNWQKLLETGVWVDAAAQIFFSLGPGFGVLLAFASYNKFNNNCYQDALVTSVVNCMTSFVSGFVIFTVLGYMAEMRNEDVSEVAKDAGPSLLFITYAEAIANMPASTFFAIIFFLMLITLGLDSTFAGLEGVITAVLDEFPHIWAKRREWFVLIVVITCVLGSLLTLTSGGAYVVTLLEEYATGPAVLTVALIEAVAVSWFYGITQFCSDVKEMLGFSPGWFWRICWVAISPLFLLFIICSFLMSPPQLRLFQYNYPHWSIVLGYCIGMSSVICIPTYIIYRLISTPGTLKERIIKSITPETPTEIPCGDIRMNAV
# measurement.notes: [3H]serotonin uptake inhibition in rat brain synaptosomes
# recorded.conditions: read-out: [3H]Serotonin uptake, IC50 at SERT; rat brain synaptosomes (whole brain minus striatum and cerebellum); 5 nM [3H]serotonin; mean±SD, n=3
pIC50: −log10 of the molar value.
test.readout: pIC50

| compound | result.value |
| --- | --- |
| CCCC(C(=O)c1ccc2c(c1)OCO2)N1CCCC1 (stereo not shown) | 5.48 |
| CCC(C(=O)c1ccccc1)N1CCCC1 (stereo not shown) | < 5.00 |
| CC(C(=O)c1ccccc1)N1CCCC1 (stereo not shown) | < 5.00 |
| CCCC(C(=O)c1ccccc1)N1CCCC1 (stereo not shown) | < 5.00 |
